Each entry below carries its recorded EC50.
Tested on: Wild-type F. novicida
method summary: microbe, parasite or virus in culture
Type: cell-based
measurement type: EC50 (µM)

INSERT INTO results (compound, study_target, unit_abbrev, endpoint_value) VALUES
  ('O=CN(O)CCCP(=O)(O)O', 'Wild-type F. novicida', 'µM', 3.6),
  ('CC(=O)N(O)CCCP(=O)(OC(C)OC(=O)c1ccccc1)OC(C)OC(=O)c1ccccc1 (stereo not drawn)', 'Wild-type F. novicida', 'µM', 45.2),
  ('CC(=O)N(O)CCCP(=O)(O)O', 'Wild-type F. novicida', 'µM', 23.2);

----------
study target: F. tularensis LVS DXR (Francisella tularensis subsp. holarctica, UniProt Q2A4P9)
Sequence (Q2A4P9 whole entry, looked up): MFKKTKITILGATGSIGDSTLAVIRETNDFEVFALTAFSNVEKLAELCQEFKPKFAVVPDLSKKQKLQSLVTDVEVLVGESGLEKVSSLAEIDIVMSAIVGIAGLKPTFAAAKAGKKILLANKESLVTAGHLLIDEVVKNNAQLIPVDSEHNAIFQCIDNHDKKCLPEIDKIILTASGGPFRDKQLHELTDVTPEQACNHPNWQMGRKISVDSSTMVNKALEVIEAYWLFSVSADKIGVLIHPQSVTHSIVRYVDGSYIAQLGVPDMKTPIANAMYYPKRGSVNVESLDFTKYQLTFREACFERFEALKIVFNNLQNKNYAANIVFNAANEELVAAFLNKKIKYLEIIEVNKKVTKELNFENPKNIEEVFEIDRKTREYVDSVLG
pIC50: −log10 of the molar value.
measurement type: pIC50

INSERT INTO assay_data (item_smiles, endpoint_value) VALUES
  ('CC(=O)N(O)CCCP(=O)(O)O', 6.64);

----------
Test system: F. novicida glpT mutant
Type: cell-based
Known Percent inhibition of growth (OD600 treated vs untreated) of a selection of compounds
measurement type: Percent inhibition of growth (OD600 treated vs untreated) (%)

INSERT INTO results (compound, unit_abbrev, endpoint_value) VALUES
  ('CC(=O)N(O)CCCP(=O)(OC(C)OC(=O)c1ccccc1)OC(C)OC(=O)c1ccccc1 (stereo not shown)', '%', 100),
  ('CC(=O)N(O)CCCP(=O)(O)O', '%', 55),
  ('CCCCCCOP(=O)(CCCN(O)C(C)=O)OCCCCCC', '%', 11);

----------
// values below are reported MIC
Test system: F. novicida glpT mutant
Format: cell-based
measurement type: MIC

INSERT INTO assay_data (compound, measurement_type, endpoint_value) VALUES
  ('CC(=O)N(O)CCCP(=O)(O)O [FR900098]', 'MIC', '>1000 µM'),
  ('O=CN(O)CCCP(=O)(O)O [Fosmidomycin]', 'MIC', '>1000 µM'),
  ('CCCCCCOP(=O)(CCCN(O)C(C)=O)OCCCCCC [Compound 2]', 'MIC', '>1000 µM'),
  ('CC(=O)N(O)CCCP(=O)(OC(C)OC(=O)c1ccccc1)OC(C)OC(=O)c1ccccc1 (stereo not shown) [Compound 1]', 'MIC', '200 µM');

----------
Test system: Wild-type F. novicida
method summary: microbe, parasite or virus in culture
Assay type: cell-based
protocol conditions: Francisella tularensis, 48 h
measurement type: MIC (µM)

INSERT INTO results (compound, unit_abbrev, endpoint_value) VALUES
  ('CC(=O)N(O)CCCP(=O)(OC(C)OC(=O)c1ccccc1)OC(C)OC(=O)c1ccccc1 (stereo not shown) [Compound 1]', 'µM', 202),
  ('CCCCCCOP(=O)(CCCN(O)C(C)=O)OCCCCCC [Compound 2]', 'µM', 1090),
  ('O=CN(O)CCCP(=O)(O)O [Fosmidomycin]', 'µM', 136),
  ('CC(=O)N(O)CCCP(=O)(O)O [FR900098]', 'µM', 254);

Data origin: paper PMC3471904
